TGI by entry:
Tested on: OVCAR-8 ovarian
Assay: NCI tumour cell line growth inhibition, 48 h

Answered cases to consult:
| chemicalStructure | TGI |
| --- | --- |
| CN(C)C/C=C(/c1ccc(Br)cc1)c1cccnc1 | > 100 µM |
| Cc1c(NC(=O)CCCl)c(=O)oc2c(C)c3occc(=O)c3cc12 | > 100 µM |
| Nc1ccc(S(=O)(=O)Nc2nc3ccccc3nc2Nc2ccc(S(N)(=O)=O)cc2)cc1 | > 100 µM |
| Brc1ccc(-c2ccc(-c3ccc(-c4ccc(Br)s4)s3)s2)s1 | > 100 µM |
| NC(=O)Cc1ccccc1Oc1nccc(-c2c(-c3ccc(F)cc3)ncn2C2CCNCC2)n1 | > 25 µM |

We now examine a further compound.
Query: Retrieve TGI measured for CCN(CC)CCC(=O)c1ccc(Oc2ccc(C)cc2)cc1 and print it.
Reply: 39.4 µM

----------
System: SNB-19 CNS
Test: NCI tumour cell line growth inhibition, 48 h
measurementKind: TGI

| compound | testValue |
| --- | --- |
| NC(=O)c1cccc(N)c1 | > 100 µM |

Query: Would you please give the reported TGI of C/C(=N\N=C(\N)OB(F)F)c1ccccn1 with SNB-19 CNS?
Reply: > 100 µM

Query: Given Nc1nn(C(=O)Nc2ccc(Cc3ccccc3)cc2)c2ccc(Cl)cc12 , report its TGI on SNB-19 CNS.
Reply: 51.7 µM

Query: State the measured TGI (SNB-19 CNS) of CC1C(=O)CCC1C(Sc1ccccc1)(Sc1ccccc1)Sc1ccccc1 (configuration not stated)
Reply: > 100 µM

Query: State recorded TGI with SNB-19 CNS, entry S=C1CNC(=S)CN1 , no comment.
Reply: > 100 µM

Query: Param request: TGI | system SNB-19 CNS | item COc1ccccc1/C=C1\CCC(CN(C)C)C1=O (configuration not stated)
Reply: 26.7 µM

Query: System SNB-19 CNS. Read-out TGI. Item COc1cc(/C=C2\N=C(c3ccccc3)N(c3nc4c(Cl)cc(Cl)cc4s3)C2=O)ccc1O . Report value.
Reply: > 100 µM

Query: Report measured TGI on SNB-19 CNS; entry: COC(=O)C(C(=O)C(=O)Nc1c(Cl)cc([N+](=O)[O-])cc1Cl)c1nc2cc(C)c(C)cc2[nH]c1=O (configuration not stated)
Reply: > 100 µM

Query: Output reported TGI of the compound COc1ccc(C2=C(Br)C(=O)OC2)cc1Cl on SNB-19 CNS.
Reply: > 100 µM

Query: Provide the reported TGI (system: SNB-19 CNS) for COc1ccc(NC(=O)CSc2nnc(Cc3ccccc3)o2)cc1
Reply: > 100 µM

Query: Write down measured TGI (SNB-19 CNS) for this compound. Cn1c2c(c3c(=O)[nH]ncc31)CCc1ccccc1-2
Reply: > 100 µM

Query: Write TGI of CCC(C)[C@H]1C(=O)N=C(N)N1C(=O)OCc1ccccc1 (some centres not stated) ; system used: SNB-19 CNS
Reply: > 100 µM

----------
Test system: U251 CNS
Experiment: NCI tumour cell line growth inhibition, 48 h
Each item that follows carries a reported TGI.
The reply should contain only the number, in µM.

| chemicalStructure | TGI / µM |
| --- | --- |
| COc1cc(/C=C2/C[C@H]3[C@@H]4CCC5=CC(=O)CC[C@]5(C)[C@H]4CC[C@]3(C)NC2=O)cc(OC)c1OC | 57.1 |
| O=C(Nc1cccc(-n2cc(-c3ccncc3)c(-c3cc(O)cc(Cl)c3)n2)c1)Nc1ccc(Cl)c(Cl)c1 | 3.09 |
| O=C(COC(c1ccc(F)cc1)c1ccc(F)cc1)N1CCN(CCCc2ccccc2)CC1 | 14.8 |

Consider now this further compound.
Query: Provide measured TGI value, entry: O=C(/C=C/c1ccccc1O)c1ccccc1
Reply: 14.4
